Test: Toxicity in tadpole assessed as lethality at 0.3125 ppm measured after 48 hrs
Type: organism-based
Settings: anura, in vivo
ASSAY METRIC: mortality at 48 h, 0.3125 ppm (%)

> print(dat)
                               smiles.text  unit.abbreviation  val
1  COc1cc(-n2cnc3ccc(Cl)cc3c2=O)cc(OC)c1OC                  %    0

====

Test: Toxicity in tadpole assessed as lethality at 0.625 ppm measured after 120 hrs
Type: organism-based
Conditions: anura, in vivo
ASSAY METRIC: mortality at 120 h, 0.625 ppm (%)

> print(dat)
                               smiles.text                   assay.metric  val
1  COc1cc(-n2cnc3ccc(Cl)cc3c2=O)cc(OC)c1OC  mortality at 120 h, 0.625 ppm    0

Data provenance is ChEMBL document CHEMBL3792356.
